Assay: Toxicity to normal cells (SRB)
Type: cell-based, human
Conditions: human, Hs27 fibroblasts (normal cell line)
Where a name gives a salt, the structure may show the parent alone.
The entries below are paired with their reported GI50 at 72 h.

Worked set:
CN[C@@H](C)C(=O)N[C@H](C(=O)N1CCC[C@H]1C(=O)Nc1cc2c(Nc3ccc(-c4ccccc4)cc3)ncnc2cc1OC)C(C)(C)C [Example 39, hydrochloride] | > 10 µM
CN[C@@H](C)C(=O)N[C@H](C(=O)N1CCC[C@H]1C(=O)Nc1cc2c(NCC3CCCCC3)ncnc2cc1OC)C(C)(C)C [Example 77, hydrochloride] | > 10 µM

Query: GI50 at 72 h; subject: CNc1ncnc2cc(OC)c(NC(=O)[C@@H]3CCCN3C(=O)[C@@H](NC(=O)[C@H](C)NC)C(C)(C)C)cc12
> 10 µM
